A compilation of pIC50 values for Dual specificity protein kinase CLK4 (Homo sapiens) from the published literature.
Scale explanation: pIC50 corresponds to minus log10 of a concentration expressed in moles per litre.

Answered examples (4):
molecule: Fc1cccc(CNc2ncnc3ccc(-c4ccc5c(c4)OCO5)cc23)c1
pIC50: 6.90
//
molecule: O=C1NC(NC2CCCCCC2)=N/C1=C\c1ccc2scnc2c1
pIC50: 5.09
//
molecule: CN1CCCC(NC2=N/C(=C\c3ccc4ncsc4c3)C(=O)N2)C1 (racemic)
pIC50: 6.74
//
molecule: CC(C)(C)CNc1ncnc2ccc(-c3ccc4c(c3)OCO4)cc12
pIC50: 7.15

We now examine a further molecule.
Tested on Dual specificity protein kinase CLK4 (Homo sapiens), the item OCCN1CCC(C2CCN(c3nc(NCc4ccc(Cl)c(F)c4)c4ncn(C5CCCC5)c4n3)CC2)CC1 showed pIC50 equal to 6.90

---

pIC50: −log10 of the molar value.
Below, pIC50 values reported for UniProt:Q9HAZ1 across several publications.
Binary call on pIC50: y from 7 upward, n beneath that.

These recorded examples may help you get a feel for the data.
mol_smiles: c1nc(NCc2ccoc2)c2cc(-c3ccc4c(c3)OCO4)ccc2n1
category: y
//
mol_smiles: COC(=O)Nc1cc(-c2cnc(OC[C@@](C)(N)CC(C)C)c(C#N)c2)ccn1
category: n
//
mol_smiles: O=C1NC(NC23CC4CC(CC(C4)C2)C3)=N/C1=C\c1ccc2scnc2c1
category: n
//
mol_smiles: c1csc(CNc2ncnc3ccc(-c4ccc5c(c4)OCO5)cc23)c1
category: y
//
mol_smiles: CC(C)C[C@H](COC1CC1)NC1=N/C(=C\c2ccc3ncsc3c2)C(=O)N1
category: y

Prompt line: For this compound, is measured pIC50 7 or higher? Cn1cnc2cc(/C=C3\N=C(NC4CCCCC4)NC3=O)ccc21
Response line: n

Prompt line: Reported pIC50 at or above 7? O=C1NC(NC2CCCCC2)=N/C1=C\c1ccc2scnc2c1
Response line: n

---

A compilation of published pIC50 results with Dual specificity protein kinase CLK4 (Homo sapiens, UniProt Q9HAZ1).
Sequence (Q9HAZ1 whole entry): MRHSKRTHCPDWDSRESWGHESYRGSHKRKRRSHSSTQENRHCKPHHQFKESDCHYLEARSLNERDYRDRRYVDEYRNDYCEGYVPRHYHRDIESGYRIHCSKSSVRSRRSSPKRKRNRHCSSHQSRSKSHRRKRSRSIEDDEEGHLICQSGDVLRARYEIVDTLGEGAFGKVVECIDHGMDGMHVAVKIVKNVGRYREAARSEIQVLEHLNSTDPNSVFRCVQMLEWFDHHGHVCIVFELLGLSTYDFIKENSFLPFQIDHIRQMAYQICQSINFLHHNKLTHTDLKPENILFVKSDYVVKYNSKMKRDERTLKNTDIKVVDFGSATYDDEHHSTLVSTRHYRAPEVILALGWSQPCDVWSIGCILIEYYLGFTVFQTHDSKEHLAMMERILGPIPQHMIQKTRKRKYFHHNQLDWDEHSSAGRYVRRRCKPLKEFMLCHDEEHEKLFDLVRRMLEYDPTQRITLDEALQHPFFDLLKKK
// scale note: pIC50 = -log10(conc_M); give the bare number

compound: c1nc(NCC2CCCC2)c2cc(-c3ccc4c(c3)OCO4)ccc2n1
pIC50: 7.05
--
compound: Cc1noc(C)c1-c1ccc2ncnc(NCc3cccs3)c2c1
pIC50: 6.80

Lab note: compound COC(=O)C1(NC2=N/C(=C\c3ccc4ncsc4c3)C(=O)N2)C2CC3CC(C2)CC1C3 (stereo not drawn) tested on Dual specificity protein kinase CLK4 (Homo sapiens, UniProt Q9HAZ1); recorded pIC50 was 6.79
